The measurements presented in this section are drawn from patent US9079854B2.

The entries below are paired with their reported % of Control Specific Binding 2nd.
# measured_on: human CB2 (hCB2) receptor (Homo sapiens)
# Construct: expressed in transfected cells; host or cells: CHO (Chinese hamster ovary) cells, membranes
# assay_overview: CB2 binding assay, competitive binding of [3H]WIN 55212-2
# run_conditions: CB2; Test Concentration 1.0E−05 (MD); 2nd determination
Output spec: scalar in %, unitless text.

>>> df
                                   compound                               measured_on  result_value
0  O=C1/C(=N\NC(=S)Nc2ccccc2)c2ccccc2N1CCC1CCCCC1 [Example 1]  human CB2 (hCB2) receptor (Homo sapiens)          87.6

Exam item: Given the compound CCCCCCN1C(=O)/C(=N\NC(=S)Nc2ccccc2)c2ccccc21 [Example 2] , what is its reported % of Control Specific Binding 2nd?
Marked response: 64.7

====

# measured_on: hCB2 receptor (Homo sapiens, UniProt P34972)
# Construct: purchased ES-111-MG; host or cells: CHO membrane extracts
# Sequence (P34972 whole entry): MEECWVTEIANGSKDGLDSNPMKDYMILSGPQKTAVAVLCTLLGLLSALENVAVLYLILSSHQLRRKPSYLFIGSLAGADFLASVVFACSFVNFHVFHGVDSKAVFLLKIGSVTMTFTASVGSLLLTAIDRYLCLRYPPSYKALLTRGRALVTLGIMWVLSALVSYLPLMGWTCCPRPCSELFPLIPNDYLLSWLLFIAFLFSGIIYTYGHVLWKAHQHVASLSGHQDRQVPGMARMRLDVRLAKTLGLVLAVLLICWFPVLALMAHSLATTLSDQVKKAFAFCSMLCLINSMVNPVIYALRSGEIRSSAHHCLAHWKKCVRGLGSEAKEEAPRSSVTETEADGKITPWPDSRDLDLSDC
# assay_overview: CB2 functional assay, [35S]GTP-γ-S binding
# Format: biochemical
# run_conditions: CB2 Functional Activity; read-out: EC50 (nM) for GTP Binding
experimental_readout: EC50
Give the value; after it, write the unit.

                               smiles_input  result_value
0  CCCCCCN1C(=O)/C(=N\NC(=O)Cc2ccccc2)c2ccccc21        189 nM
1  CCCCCCN1C(=O)/C(=N\NC(=O)c2ccccc2)c2ccccc21       63.4 nM

Exam item: Requested read-out: EC50. Entry: O=C(N/N=C1\C(=O)N(CCC2CCCCC2)c2ccccc21)c1ccccc1
Marked response: 103 nM

====

# measured_on: human CB1 (hCB1) receptor (Homo sapiens)
# Construct: expressed in transfected cells; host or cells: CHO (Chinese hamster ovary) cells, membranes
# Sequence (P21554 whole entry): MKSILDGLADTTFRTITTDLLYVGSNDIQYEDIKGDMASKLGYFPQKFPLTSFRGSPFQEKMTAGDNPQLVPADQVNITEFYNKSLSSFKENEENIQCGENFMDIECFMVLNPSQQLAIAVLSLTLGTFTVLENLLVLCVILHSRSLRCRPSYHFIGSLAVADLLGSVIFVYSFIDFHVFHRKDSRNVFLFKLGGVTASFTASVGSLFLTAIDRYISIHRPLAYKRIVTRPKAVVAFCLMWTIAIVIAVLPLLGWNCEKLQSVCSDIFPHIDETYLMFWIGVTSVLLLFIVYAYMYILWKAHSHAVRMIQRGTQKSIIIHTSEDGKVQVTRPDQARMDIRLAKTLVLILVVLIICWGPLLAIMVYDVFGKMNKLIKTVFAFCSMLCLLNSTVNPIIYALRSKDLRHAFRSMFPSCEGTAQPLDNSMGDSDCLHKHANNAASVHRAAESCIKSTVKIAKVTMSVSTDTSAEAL
# assay_overview: CB1 binding assay, competitive binding of [3H]CP 55940
# run_conditions: CB1; Test Concentration 1.0E−05 (MD)
experimental_readout: % Inhibition of Control Specific Binding (%)
Reply numerically in %, unit not repeated.

Worked examples, 5 compounds total:
>>> print(df.to_string())
                               smiles_input                      experimental_readout  result_value
0  CCCCCCN1C(=O)/C(=N\NC(=O)c2ccccc2)c2ccccc21  % Inhibition of Control Specific Binding            96
1  O=C1/C(=N\NS(=O)(=O)c2ccccc2)c2ccccc2N1CCC1CCCCC1  % Inhibition of Control Specific Binding            16
2  CCCCCCN1C(=O)/C(=N\NS(=O)(=O)c2ccccc2)c2ccccc21  % Inhibition of Control Specific Binding             8
3  O=C1/C(=N\NC(=S)Nc2ccccc2)c2ccccc2N1CCC1CCCCC1  % Inhibition of Control Specific Binding            36
4  CCCCCCN1C(=O)/C(=N\NC(=O)Cc2ccccc2)c2ccccc21  % Inhibition of Control Specific Binding            98

Exam item: Any idea what % Inhibition of Control Specific Binding came out for O=C(N/N=C1\C(=O)N(CCC2CCCCC2)c2ccccc21)Nc1ccccc1 on human CB1 (hCB1) receptor (Homo sapiens)?
Marked response: 34

Exam item: Quick check: % Inhibition of Control Specific Binding on human CB1 (hCB1) receptor (Homo sapiens), item CCCCCCN1C(=O)/C(=N\NC(=O)Nc2ccccc2)c2ccccc21 ?
Marked response: 37
